Hello, the source for this data is PubChem BioAssay AID1963825, in case you need it.

Assay: Anticancer human tumor 997537-175-T-J1-PDC patient-derived colon adenocarcinoma cell line growth inhibition [POLQ];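 also: luminescence signal used as a surrogate for viable cells; spheroids exposed to drugs for seven days before readout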
Details: 997537-175-T-J1-PDC complex spheroid viability, combination with POLQ inhibitors; second compound 0.1 µM; first compound 0.1 µM; stronger effect = lower value
So I've got a bunch of molecules here, and I need their viability, T/C values.
One number for each entry, in %.

Worked set:
CNCc1ccc(-c2[nH]c3cc(F)cc4c3c2CCNC4=O)cc1 + COC1C(OC(N)=O)C(O)C(Oc2ccc3c(O)c(NC(=O)c4ccc(O)c(CC=C(C)C)c4)c(=O)oc3c2C)OC1(C)C : 97
C#Cc1c(F)ccc2cc(O)cc(-c3ncc4c(N5CC6CCC(C5)N6)nc(OCC56CCCN5CC(F)C6)nc4c3F)c12 (stereo unspecified) + Cc1cccc(N(C)C(=O)C2C(O)CCN2c2nc(C)cc(C(F)(F)F)c2C#N)c1 : 102
CCc1cc2c(N3CCc4c(cc(Cn5ccnc5)cc4-c4cn(C)nc4C(F)(F)F)C3=O)cc(C)nc2c(OC)n1 + Nc1ccc(C#CCN(C(=O)Cc2ncc(C(F)(F)F)cc2C(F)(F)F)c2ccc(F)cc2)nn1 : 97
O=C(Nc1ccc(O)c(NS(=O)(=O)c2ccc(F)cc2)c1)c1ccc(-c2ccccc2)cc1 + Cc1cccc(N(C)C(=O)C2C(O)CCN2c2nc(C)cc(C(F)(F)F)c2C#N)c1 : 99.4
COc1cccc(OCCCN)c1-c1cc(Nc2cnc(C#N)cn2)n[nH]1 + Nc1ccc(C#CCN(C(=O)Cc2ncc(C(F)(F)F)cc2C(F)(F)F)c2ccc(F)cc2)nn1 : 43

For COc1cc(C2c3cc4c(cc3C(OC3OC5COC(C)OC5C(O)C3O)C3COC(=O)C23)OCO4)cc(OC)c1O (stereo unspecified) + COC1C(OC(N)=O)C(O)C(Oc2ccc3c(O)c(NC(=O)c4ccc(O)c(CC=C(C)C)c4)c(=O)oc3c2C)OC1(C)C the molecule record lists viability, T/C as 114
